Molecular target: T1, GST-Als5 (Candida albicans, UniProt Q5A8T7 20-1327)
T1 construct: source: E. coli BL21, purified (glutathione-agarose); not shown: GST, N-terminal, kept
T1 sequence: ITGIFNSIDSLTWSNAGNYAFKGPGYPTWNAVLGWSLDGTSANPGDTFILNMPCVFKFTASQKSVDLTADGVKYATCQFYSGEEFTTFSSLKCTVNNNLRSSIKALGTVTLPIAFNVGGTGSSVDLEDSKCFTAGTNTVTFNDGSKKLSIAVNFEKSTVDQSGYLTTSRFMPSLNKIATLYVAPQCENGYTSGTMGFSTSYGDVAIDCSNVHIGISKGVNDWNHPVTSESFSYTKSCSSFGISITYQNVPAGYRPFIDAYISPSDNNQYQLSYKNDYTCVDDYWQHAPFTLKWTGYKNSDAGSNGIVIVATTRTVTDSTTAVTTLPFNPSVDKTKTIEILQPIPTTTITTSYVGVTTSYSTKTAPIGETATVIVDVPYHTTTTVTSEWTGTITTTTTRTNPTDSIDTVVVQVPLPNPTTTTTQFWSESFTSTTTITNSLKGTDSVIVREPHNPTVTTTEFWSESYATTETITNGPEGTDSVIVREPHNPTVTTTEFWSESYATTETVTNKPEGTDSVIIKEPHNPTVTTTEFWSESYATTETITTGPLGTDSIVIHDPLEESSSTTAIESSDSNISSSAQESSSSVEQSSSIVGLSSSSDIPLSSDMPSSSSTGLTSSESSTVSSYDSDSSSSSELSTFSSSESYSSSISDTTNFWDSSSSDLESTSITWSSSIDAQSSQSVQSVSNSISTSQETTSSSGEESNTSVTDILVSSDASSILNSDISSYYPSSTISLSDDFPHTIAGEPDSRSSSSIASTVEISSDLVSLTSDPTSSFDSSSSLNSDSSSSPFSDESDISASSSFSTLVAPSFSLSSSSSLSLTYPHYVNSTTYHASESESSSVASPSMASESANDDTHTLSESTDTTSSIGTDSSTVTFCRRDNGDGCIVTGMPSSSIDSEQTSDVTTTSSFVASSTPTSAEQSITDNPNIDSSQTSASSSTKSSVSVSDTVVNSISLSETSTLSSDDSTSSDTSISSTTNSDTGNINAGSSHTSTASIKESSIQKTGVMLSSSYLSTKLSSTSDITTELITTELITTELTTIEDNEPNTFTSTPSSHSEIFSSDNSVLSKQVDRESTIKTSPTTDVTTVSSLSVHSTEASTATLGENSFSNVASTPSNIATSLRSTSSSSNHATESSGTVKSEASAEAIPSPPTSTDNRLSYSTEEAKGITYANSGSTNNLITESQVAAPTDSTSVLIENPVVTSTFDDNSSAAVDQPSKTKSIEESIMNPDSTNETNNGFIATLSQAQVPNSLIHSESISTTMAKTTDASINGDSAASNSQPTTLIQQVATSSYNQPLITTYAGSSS
Experiment: other fluorescence titration; tryptophan fluorescence of 0.02 mg/ml protein, peptide titrated in; one-site saturation model; 52 °C (secondary structure of both proteins mildly perturbed at this temperature)
Settings: both partners purified
pKd: −log10 of the molar value.
Parameter: pKd. Scope: all listed entries.

{"binder": "KLRIPSV (source: synthetic peptide (USV Ltd.))", "pKd": 8.15}
{"binder": "AYKSLMT (source: synthetic peptide (USV Ltd.))", "pKd": 7.92}
{"binder": "EHAHTPR (source: synthetic peptide (USV Ltd.))", "pKd": 7.96}

Numbers sourced from paper PMC3324464.
